Tested on: rhythmic bladder contractions induced by substance P
Experiment: Inhibitory effect on the rhythmic bladder contractions induced by substance P in anesthetized rats
Assay type: in vivo, rat
Conditions: time during which frequency of rhythmic contraction was completely inhibited, 0.25 mg/kg of the compound, substance P infusion
Readout Label: 100% inhibition time range

[[record]]
molecule = "CCOc1c(F)cc(-c2oc(-c3ccc(F)cc3)nc2CC(=O)O)cc1OC [Preparation Example 251]"
experimental_result = "C (A≧20>B≧10>C (minute))"

[[record]]
molecule = "Cn1ccc2cc(-c3nc(CC(=O)O)c(-c4ccc(Cl)s4)o3)ccc21 [Preparation Example 469]"
experimental_result = "B (A≧20>B≧10>C (minute))"

[[record]]
molecule = "CCc1nc(-c2ccc(C#N)cc2)[nH]c1-c1cccnc1 [Preparation example 53]"
experimental_result = "C (A≧20>B≧10>C (minute))"

[[record]]
molecule = "O=C(O)Cc1nc(-c2ccc(F)cc2)oc1-c1ccccc1 [Preparation Example 153]"
experimental_result = "B (A≧20>B≧10>C (minute))"

[[record]]
molecule = "C[S+]([O-])Cc1nc(-c2ccc(F)cc2)oc1-c1ccsc1 (centres unmarked) [Preparation Example 624]"
experimental_result = "C (A≧20>B≧10>C (minute))"

[[record]]
molecule = "CCc1nc(-c2ccc(Cl)s2)oc1-c1cccnc1.Cl [Preparation example 63]"
experimental_result = "C (A≧20>B≧10>C (minute))"

[[record]]
molecule = "CCN(CC)c1ccc(-c2nc(CC(=O)O)c(-c3ccsc3)o2)cn1 [Preparation Example 530]"
experimental_result = "C (A≧20>B≧10>C (minute))"


###

Tested on: isolated rabbit urinary bladder
Experiment: Relaxation effect on potassium-induced contraction of isolated rabbit urinary bladder
Assay type: cell-based
Conditions: Oryctolagus cuniculus; 50% relaxation concentration; high-K+ (30 mM) pre-contracted rabbit bladder strips; relaxation as percentage of the maximum produced by 0.1 mM papaverine; read-out: EC50 value range
Readout Label: EC50

[[record]]
compound = "O=C(O)Cc1nc(-c2nc3ccccc3s2)oc1-c1ccc(Cl)s1 [Preparation Example 446]"
experimental_result = "≤ 0.5 µM"

[[record]]
compound = "COCc1nc(-c2ccc(F)cc2)[nH]c1-c1ccccc1 [Preparation example 121]"
experimental_result = "1 to 3 µM"

[[record]]
compound = "O=C(O)Cc1nc(-c2ccc3occc3c2)oc1-c1cccs1 [Preparation Example 269]"
experimental_result = "≤ 0.5 µM"

[[record]]
compound = "O=C(O)Cc1nc(-c2ccc(F)cc2)oc1-c1ccc2occc2c1 [Preparation Example 285]"
experimental_result = "1 to 3 µM"


###

System: isolated rabbit urinary bladder
Experiment: Relaxation effect on potassium-induced contraction of isolated rabbit urinary bladder
Type: cell-based
Conditions: Oryctolagus cuniculus; 50% relaxation concentration; high-K+ (30 mM) pre-contracted rabbit bladder strips; relaxation as percentage of the maximum produced by 0.1 mM papaverine; read-out: EC50 value range
pEC50: −log10 of the molar value.
Readout Label: pEC50

[[record]]
molecule = "COc1ccc(-c2nc(-c3cccs3)c(CC(=O)O)o2)cc1 [Preparation Example 507]"
experimental_result = "≥ 6.30"

[[record]]
molecule = "COc1ccc(-c2nc(CC(=O)O)c(-c3cccs3)o2)cc1F [Preparation Example 431]"
experimental_result = "6.00 to 6.30"

[[record]]
molecule = "CCc1nc(-c2ccc(C#N)s2)[nH]c1-c1cccnc1 [Preparation example 16]"
experimental_result = "5.52 to 6.00"

[[record]]
molecule = "COCc1ccc(-c2nc(CC(=O)O)c(-c3ccc(Cl)s3)o2)cn1 [Preparation Example 464]"
experimental_result = "5.52 to 6.00"

[[record]]
molecule = "O=C(O)Cc1nc(-c2ccc(Cl)cc2)oc1-c1ccc(Cl)s1 [Preparation Example 275]"
experimental_result = "≥ 6.30"

[[record]]
molecule = "COc1ccc(-c2nc(CC(=O)O)c(-c3ccccc3F)o2)cc1 [Preparation Example 247]"
experimental_result = "5.52 to 6.00"

[[record]]
molecule = "O=C(O)Cc1sc(-c2ccc(F)cc2)nc1-c1ccsc1 [Preparation Example 594]"
experimental_result = "≥ 6.30"

[[record]]
molecule = "CCc1[nH]c(-c2ccsc2C(C)O)nc1-c1cccnc1.Cl.Cl (stereo not shown) [Preparation Example 486, dihydrochloride]"
experimental_result = "5.52 to 6.00"

[[record]]
molecule = "Cc1nc2cc(-c3nc(CC(=O)O)c(-c4ccc(Cl)s4)o3)ccc2s1 [Preparation Example 459]"
experimental_result = "5.52 to 6.00"

[[record]]
molecule = "O=C(O)Cc1nc(-c2cc3c(s2)CCC3)oc1-c1ccc(Cl)s1 [Preparation Example 479]"
experimental_result = "≥ 6.30"

[[record]]
molecule = "CCCc1nc(-c2ccc(F)cc2)[nH]c1-c1ccc(C#N)cc1 [Preparation example 95]"
experimental_result = "5.52 to 6.00"

[[record]]
molecule = "CCONC(=O)Cc1nc(-c2ccc(F)cc2)oc1-c1ccsc1 [Preparation Example 377]"
experimental_result = "5.52 to 6.00"

[[record]]
molecule = "O=C(O)Cc1[nH]c(-c2cc3ccccc3s2)nc1-c1ccc(Cl)cc1 [Preparation Example 355]"
experimental_result = "≥ 6.30"

[[record]]
molecule = "CS(=O)(=O)NCCc1nc(-c2ccc(F)cc2)oc1-c1ccsc1.[Na] [Preparation Example 378, sodium salt]"
experimental_result = "5.52 to 6.00"

[[record]]
molecule = "O=C(O)Cc1nc(-c2ccc(F)cc2)oc1-c1csc2ccccc12 [Preparation Example 158]"
experimental_result = "5.52 to 6.00"

[[record]]
molecule = "O=C(O)Cc1nc(-c2ccc(F)cc2)oc1-c1ccc(Cl)cc1 [Preparation Example 243]"
experimental_result = "≥ 6.30"


###

Tested on: rhythmic bladder contractions induced by substance P
Experiment: Inhibitory effect on the rhythmic bladder contractions induced by substance P in anesthetized rats
Assay type: in vivo, rat
Conditions: time during which frequency of rhythmic contraction was completely inhibited, 0.25 mg/kg of the compound, substance P infusion
Readout Label: 100% inhibition time range

[[record]]
molecule = "O=C(O)Cc1sc(-c2ccc(F)cc2)nc1-c1ccc(Cl)cc1 [Preparation Example 573]"
experimental_result = "B (A≧20>B≧10>C (minute))"

[[record]]
molecule = "COc1ccc(-c2nc(CC(=O)O)c(-c3ccc(Cl)s3)o2)cn1 [Preparation Example 368]"
experimental_result = "B (A≧20>B≧10>C (minute))"

[[record]]
molecule = "COc1ccc(-c2nc(CC(=O)O)c(-c3ccc(Cl)s3)o2)cc1 [Preparation Example 523]"
experimental_result = "B (A≧20>B≧10>C (minute))"


###

Tested on: isolated rabbit urinary bladder
Experiment: Relaxation effect on potassium-induced contraction of isolated rabbit urinary bladder
Format: cell-based
Conditions: Oryctolagus cuniculus; 50% relaxation concentration; high-K+ (30 mM) pre-contracted rabbit bladder strips; relaxation as percentage of the maximum produced by 0.1 mM papaverine; read-out: EC50 value range
Readout Label: EC50

[[record]]
compound = "O=C(O)Cc1nc(-c2ccc(F)cc2)oc1-c1ccsc1 [Preparation Example 197]"
experimental_system = "isolated rabbit urinary bladder"
readout_label = "EC50"
experimental_result = "1 to 3 µM"

[[record]]
compound = "CN(C)c1ncc(-c2nc(CC(=O)O)c(-c3ccc(Cl)s3)o2)cn1 [Preparation Example 362]"
experimental_system = "isolated rabbit urinary bladder"
readout_label = "EC50"
experimental_result = "1 to 3 µM"

[[record]]
compound = "CN(C)c1ccc(-c2nc(-c3cccs3)c(CC(=O)O)s2)cn1 [Preparation Example 579]"
experimental_system = "isolated rabbit urinary bladder"
readout_label = "EC50"
experimental_result = "0.5 to 1 µM"

[[record]]
compound = "CCCc1nc(-c2ccc[nH]2)[nH]c1-c1ccccc1 [Preparation example 35]"
experimental_system = "isolated rabbit urinary bladder"
readout_label = "EC50"
experimental_result = "1 to 3 µM"

[[record]]
compound = "O=C(O)Cc1nc(-c2ccc(F)cc2)oc1-c1ccc(F)cc1 [Preparation Example 235]"
experimental_system = "isolated rabbit urinary bladder"
readout_label = "EC50"
experimental_result = "0.5 to 1 µM"

[[record]]
compound = "O=C(O)Cc1nc(-c2cc3ccccc3s2)oc1-c1ccsc1 [Preparation Example 437]"
experimental_system = "isolated rabbit urinary bladder"
readout_label = "EC50"
experimental_result = "≤ 0.5 µM"

[[record]]
compound = "Cc1csc(-c2nc(CC(=O)O)c(-c3ccc(Cl)s3)o2)c1 [Preparation Example 478]"
experimental_system = "isolated rabbit urinary bladder"
readout_label = "EC50"
experimental_result = "≤ 0.5 µM"

[[record]]
compound = "C[S+]([O-])Cc1[nH]c(-c2ccc(F)cc2)nc1-c1ccccc1 (centres unmarked) [Preparation example 639]"
experimental_system = "isolated rabbit urinary bladder"
readout_label = "EC50"
experimental_result = "1 to 3 µM"


###

Tested on: isolated rabbit urinary bladder
Experiment: Relaxation effect on potassium-induced contraction of isolated rabbit urinary bladder
Format: cell-based
Conditions: Oryctolagus cuniculus; 50% relaxation concentration; high-K+ (30 mM) pre-contracted rabbit bladder strips; relaxation as percentage of the maximum produced by 0.1 mM papaverine; read-out: EC50 value range
Below, each of the compounds is paired with its reported EC50 value.
Readout Label: EC50

[[record]]
compound = "CC(C)c1nc(-c2ccc(F)cc2)[nH]c1-c1ccsc1 [Preparation Example 169]"
experimental_system = "isolated rabbit urinary bladder"
experimental_result = "1 to 3 µM"

[[record]]
compound = "CCCc1nc(-c2ccc(F)cc2)[nH]c1-c1ccsc1 [Preparation Example 172]"
experimental_system = "isolated rabbit urinary bladder"
experimental_result = "1 to 3 µM"

[[record]]
compound = "COc1ccc(-c2nc(CC(=O)O)c(-c3ccc(Cl)s3)o2)cc1Cl [Preparation Example 280]"
experimental_system = "isolated rabbit urinary bladder"
experimental_result = "≤ 0.5 µM"

[[record]]
compound = "CSc1ccc(-c2nc(CC(=O)O)c(-c3ccc(Cl)cc3)o2)cc1 [Preparation Example 455]"
experimental_system = "isolated rabbit urinary bladder"
experimental_result = "1 to 3 µM"

[[record]]
compound = "CCc1nc(-c2ccc(F)cc2)[nH]c1-c1cscn1 [Preparation example 52]"
experimental_system = "isolated rabbit urinary bladder"
experimental_result = "≤ 0.5 µM"

[[record]]
compound = "O=C(O)Cc1nc(-c2cnc3occc3c2)oc1-c1ccc(Cl)s1 [Preparation Example 444]"
experimental_system = "isolated rabbit urinary bladder"
experimental_result = "1 to 3 µM"

[[record]]
compound = "CSc1ccc(-c2nc(CC(=O)O)c(-c3ccc(Cl)s3)o2)cc1 [Preparation Example 281]"
experimental_system = "isolated rabbit urinary bladder"
experimental_result = "≤ 0.5 µM"

[[record]]
compound = "CN(c1ccc(-c2nc(CC(=O)O)c(-c3ccc(Cl)s3)o2)cn1)C1CC1 [Preparation Example 531]"
experimental_system = "isolated rabbit urinary bladder"
experimental_result = "1 to 3 µM"

